System: HOP-92 NSCLC
Test: NCI-60 one-dose screen, 48 h
Conditions: 10 µM unless noted
The panel holds about 83,000 compounds, 20% with a hit somewhere; the sample as a whole holds those more often. Calls of active or inactive are those of the source. The calls were made as follows: active = growth percent below 10; inactive = the rest.
Outcomes: true = active, false = inactive

- molecule: "COc1cccc(-c2nc(-c3ccc(NC(=O)OC(C)C)cc3)[nH]c2-c2ccnc(Br)c2)c1"
  answer-label: "false"
- molecule: "O=C(Nc1ccc(OS(=O)(=O)c2ccc(F)cc2)cc1)c1ccc(Cl)cc1"
  answer-label: "false"
- molecule: "Cc1ccc(-c2nc(N3CCN(C(=O)c4ccc(OC(F)(F)F)cc4)CC3)c3ccccc3n2)cc1"
  answer-label: "false"
- molecule: "C#C[C@]1(O)CC[C@H]2[C@@H]3CC=C4c5sc(Nc6ccccc6)nc5CC[C@]4(C)[C@H]3CC[C@@]21C"
  answer-label: "false"
- molecule: "N#CC1=C(N)Oc2c(sc3c(Br)cccc23)C1c1ccc(Br)cc1 (stereo not drawn)"
  answer-label: "false"
- molecule: "CCCCNC(=O)Oc1ccc(/C(=C(\\C)c2ccc(Cl)cc2)c2ccc(OCCN(CC)CC)cc2)cc1"
  answer-label: "false"
- molecule: "COc1cc(OCc2cccc(-c3ccc(C(O)c4nccs4)cc3)c2C)cc(OC)c1CNCCNC(C)=O (stereo not drawn)"
  answer-label: "false"
- molecule: "COc1cc(C2CC(c3cccc(Br)c3)=NN2C(C)=O)cc(OC)c1OC (stereo not drawn)"
  answer-label: "false"
- molecule: "Cc1ccc(C(CC(=O)O)c2c(C)[nH][nH]c2=O)cc1 (stereo not drawn)"
  answer-label: "false"
- molecule: "NCCCNc1nc2ccccc2c2c(=O)c3cc(OC(F)(F)F)ccc3sc12"
  answer-label: "false"
- molecule: "NCCOc1ncccc1/C=C1\\c2ccccc2-c2ccc(C(F)F)cc21"
  answer-label: "false"
- molecule: "C[C@]12CC[C@@H]3c4cc(OC(F)F)c(OS(N)(=O)=O)cc4CC[C@H]3[C@@H]1CC[C@@H]2O"
  answer-label: "false"
- molecule: "CCCCOc1nc2ccc(OC)cc2cc1-c1cc(-c2ccc(Cl)cc2)nc(-c2ccc(Cl)cc2)c1"
  answer-label: "false"
- molecule: "BrCCCc1n(Cc2ccc3ccccc3c2)c2ccccc2[n+]1Cc1ccc2ccccc2c1"
  answer-label: "true"
- molecule: "O=C(CSc1nc2ccccc2[nH]1)Nc1cccc(Cl)c1"
  answer-label: "false"
- molecule: "CCOC(=O)c1sc2ncc(-c3ccc(C)cc3)n2c1C"
  answer-label: "false"
- molecule: "CC(=O)OC[C@H]1OC(Sc2sc(C(=O)c3ccc(C)cc3)c(N)c2-c2nc3ccccc3s2)[C@H](OC(C)=O)[C@@H](OC(C)=O)[C@@H]1OC(C)=O (stereo partly drawn)"
  answer-label: "false"
- molecule: "CCc1cccc2c3c(sc12)C(c1ccc(Cl)cc1)C(C#N)=C(N)O3 (stereo not drawn)"
  answer-label: "false"
- molecule: "COc1ccc(-c2cnc3ccccc3n2)cc1"
  answer-label: "false"
- molecule: "COc1cc(C(=O)c2cnc(-c3c[nH]c4cccc(C)c34)[nH]2)cc(OC)c1OC"
  answer-label: "true"
- molecule: "CN(C)c1ccc(/C=N\\Nc2cc(=O)[nH]c3ccc(Cl)cc23)cc1"
  answer-label: "false"
- molecule: "COc1ccc(C2C(N)=NNC2c2cccc(O)c2)cc1 (stereo not drawn)"
  answer-label: "false"
- molecule: "CC[C@H](C)C(=O)O[C@H]1CCC=C2C=C[C@H](C)[C@H](CC[C@@H]3CC=CC(=O)O3)[C@H]21"
  answer-label: "false"
- molecule: "COc1ccc(-c2nc3sc(-c4ccccc4)cn3n2)cc1"
  answer-label: "false"
- molecule: "CCN1C(=O)N(CC)C2Nn3c(s/c(=C4\\C(=O)Nc5ccccc54)c3=O)=NC21 (stereo not drawn)"
  answer-label: "false"
- molecule: "CSc1ncccc1C(=O)OCC(=O)Nc1oc(C)c2c(C)n[nH]c(=O)c12"
  answer-label: "false"
- molecule: "CN1C(=O)CNC(=O)[C@H](NC(=O)c2nc3ccccc3cc2O)CSSC[C@H]1C(=O)NCCCc1nc2ccccc2cc1O"
  answer-label: "false"
- molecule: "Cc1ccc(C(=O)N/N=C/c2cccc(Oc3ccccc3)c2)cn1"
  answer-label: "false"
- molecule: "COc1ccc(C(=O)COC(=O)[C@H](C[Se][Se]C[C@H](NC(=O)c2ccc(Br)cc2F)C(=O)OCC(=O)c2ccc(OC)cc2)NC(=O)c2ccc(Br)cc2F)cc1"
  answer-label: "true"
- molecule: "COc1cccc2nc3n(c12)C(c1c(F)cccc1F)SC3 (stereo not drawn)"
  answer-label: "false"
- molecule: "Cc1ccc(C(C)C)cc1C(=O)C[n+]1ccccc1"
  answer-label: "false"
- molecule: "COc1c(B(O)O)cc(C)cc1-c1nc2ccc3[nH]ncc3c2c2c1CCCC2"
  answer-label: "false"
- molecule: "c1ccc(-c2nc3nonc3nc2-c2ccccc2)cc1"
  answer-label: "false"
